Entry source: a melting point compilation (Tetko et al.; mined from patent text by program, amines drawn as free bases though some values may be those of a salt)

List of melting point values.
Answer format: numeric, °C implied, no suffix.

Nc1cc(-n2nnn(CCCF)c2=O)c(F)cc1Cl: 84
O=[N+]([O-])c1cc(CCl)cc([N+](=O)[O-])c1CCl: 106
CC1=C(C(=O)OC(C)C)C(c2cccc3ccc(-c4ccccc4)nc23)C([N+](=O)[O-])=C(C)N1 (stereo not given): 205

--- query ---
*Q* I'd like to know its melting point. The compound in question is O=Cc1c2ccccc2cc2sccc12
*A* 113

====

MEASURE_NAME: melting point

Examples with their reported melting point follow.
CCc1ncnc2ccc(CCc3cc(OC)ccc3OC)cc12: 74 °C
Cc1cc(CC(=O)OC(C)(C)C)ccc1NC(=O)Nc1ccccc1C(F)(F)F: 178 to 180 °C
O=C(O)COc1cccc2c1CCc1sc(S(=O)(=O)C(c3cccc(F)c3)c3cccc(F)c3)nc1-2: 213 to 214 °C
COCCOCOc1c(Cl)cc(C=O)c(Cl)c1OCOCCOC: 50 °C
CC1(C)CCC(C)(C)c2cc3c(cc21)C(=O)C=CC3=O: 161 to 163 °C

*Q* I'd like to know its melting point. The compound in question is Cc1c(C)n(CC2CC2C)c2c(OCc3ccc(F)cc3)nncc12 (centres undefined)
*A* 114 to 115 °C

*Q* I'd like to know its melting point. The compound in question is CC(C)N(Cc1ccc2cc(NC(=O)N3CCC(c4ccc(Cl)cc4)CC3)ccc2n1)C(C)C
*A* 201 to 203 °C

*Q* I'd like to know its melting point. The compound in question is CCCCC[C@H]1CC[C@H](CC[C@H]2CC[C@H](C#N)CC2)CC1
*A* 56.3 °C

*Q* I'd like to know its melting point. The compound in question is N#Cc1ccc(Oc2ccccc2NC(=O)c2cccc([N+](=O)[O-])c2)cc1C#N
*A* 176 to 178 °C

*Q* I'd like to know its melting point. The compound in question is N#CCN1CCc2ccc3c(c21)CCO3
*A* 122 to 124 °C

*Q* I'd like to know its melting point. The compound in question is CC(C)N(CCOC1CCCC2Oc3ccccc3OC12)C(C)C (centres undefined)
*A* 63.4 °C

*Q* I'd like to know its melting point. The compound in question is Cc1cc[nH]c(=O)c1NC(=O)c1ccccc1
*A* 264 to 265 °C

*Q* I'd like to know its melting point. The compound in question is Cc1c(N2C[C@H](C)[C@H](NC(=O)C(F)(F)F)C2)c(F)c(N)c2c(=O)c(C(=O)O)cn(C3CC3)c12 (relative stereo)
*A* 253 to 254 °C

*Q* I'd like to know its melting point. The compound in question is CS(=O)(=O)NCC1COCc2nc3c(N)nc4ccccc4c3n21 (centres undefined)
*A* 285 to 288 °C

*Q* I'd like to know its melting point. The compound in question is FC(F)(F)c1nc(N=C(Cl)c2cccc(Cl)c2)sc1Cl
*A* 89 to 90 °C

====

List of melting point values.

Examples with their reported melting point follow.
COc1ccc(-c2ccc(C(C)=O)cc2N)cc1: 152 to 154 °C
CCC(C)(C)Nc1c(NCc2ccc(F)cc2)c(=O)c1=O: 255 to 257 °C
O=c1[nH]c2ccc(S(=O)(=O)N3CCN(c4ccccn4)CC3)c3c2c2c(cccc12)C3: 263 to 270 °C
CC(C)c1nn(-c2ccc(C#N)cn2)cc1CCCO: 105 to 106 °C
COc1cc2c(cc1OC)CCC(C(=N)NO)=C2: 202 to 205 °C

*Q* I'd like to know its melting point. The molecule in question is Cc1cc(C)cc(C(=O)N2CCC(N3CCC(=C4c5ccccc5CCn5ccnc54)CC3)CC2Cc2ccccc2)c1 (centres undefined)
*A* 139 °C

*Q* I'd like to know its melting point. The molecule in question is O=C(Nc1ccc2oc(N3CCOCC3)cc(=O)c2c1)OCc1ccccc1
*A* 245 to 250 °C

*Q* I'd like to know its melting point. The molecule in question is COC(=O)NC1CCc2ccc(NC(=O)c3cccc(C)c3-c3ccc(C(F)(F)F)cc3)cc2CC1 (centres undefined)
*A* 190 to 193 °C

*Q* I'd like to know its melting point. The molecule in question is O=C(O)[C@H](CC1CC1)N1C(=O)NC(C(F)(F)F)(C(F)(F)F)C1=O
*A* 123 to 125 °C

*Q* I'd like to know its melting point. The molecule in question is CCN(CC)Cc1cnc2cc(NC(=O)c3ccc(-c4ccc(F)cc4)cc3)c(C)cc2c1
*A* 145 to 148 °C

*Q* I'd like to know its melting point. The molecule in question is C#Cc1cnn2c(C(F)(F)F)cc(-c3ccc(Cl)cc3)nc12
*A* 102 to 103 °C

*Q* I'd like to know its melting point. The molecule in question is O=C(O)c1cnn2c(C(F)(F)F)cc(-c3ccc(C(F)(F)F)cc3)cc12
*A* > 250 °C
